// data source = PubChem BioAssay (NCI)

- Tested on: SK-MEL-5 melanoma
- Procedure Text: NCI tumour cell line growth inhibition, 48 h; in the data active = GI50 below about 0.43 µM; inactive = the rest
Classes to choose from: true (1) = active, false (0) = inactive

Some solved cases for reference:
molecule="CCOC1Oc2ccccc2C(=O)/C1=C/Nc1ccc(C(C)=O)cc1 (centres undefined)" assigned_category="false (0)"
molecule=COc1cccc(-c2cc(-c3cccc(NS(C)(=O)=O)c3)nc(N)c2C#N)c1O assigned_category="true (1)"
molecule=COc1cc(/C=N\NC(=O)CN2CCN(c3cc4c(cc3F)c(=O)c(C(=O)N/N=C/c3cc(OC)c(OC)c(OC)c3)cn4C3CC3)CC2)cc(OC)c1OC assigned_category="true (1)"
molecule=Cc1cc(-c2nc(C(=O)Nc3cc4oc(N5CCOCC5)nc4nc3N3CC[C@@H](O)C3)co2)ccn1 assigned_category="false (0)"
molecule=NC(N)=NS(=O)(=O)c1ccc(Nc2c3ccccc3nc3c(C(=O)NCCO)cccc23)cc1 assigned_category="false (0)"
molecule=Nc1c(C(=O)c2cccc(CCS(N)(=O)=O)c2)cnn1-c1ccc(F)cc1 assigned_category="false (0)"
molecule="C=C(C)C(OC)C(O)CC1(C)CC(O)CC(C)(C2CCC3OC(C4(C)CCC(Br)C(C)(C)O4)CCC3(C)O2)O1 (centres undefined)" assigned_category="false (0)"
molecule=FC(F)(F)c1cccc(Nc2nc(-c3ccccc3)nc3ncccc23)c1 assigned_category="false (0)"

Continue with the molecule presented below.
Input: What classification did OCCN(CCO)c1ncnc2c1ncn2Cc1ccc(CCl)cc1 end up with in this test?
Output: false (0)

---

- System: COLO 205 colon
- Procedure Text: NCI tumour cell line growth inhibition, 48 h
*1 amine or outer side, *2 acyl side, *3 side chain or, on linkers, in order; H or OH if unused. Where a SMILES comes first, the peptide text is derived from it. Bridges are numbered along the chain shown (N, C = ends). [ ]: non-standard residue; d: D form. The star is where a group is joined. Phe(3,5-F2) = N[C@@H](Cc1cc(F)cc(F)c1)C(=O)O; Pro(4R-Me) = C[C@H]1CN[C@H](C(=O)O)C1; aThr = C[C@H](O)[C@H](N)C(=O)O; Pip = O=C(O)[C@@H]1CCCCN1; X10 = Fc1cc(C2CC2)ccc1N*; CO = O=C([*:1])[*:2]
Assign GI50 to each entry below.

Record excerpt, results attached:
compound=CN(C)c1ccc(/C=C\C2=[N+](C)c3ccccc3C2(C)C)cc1 attribute_measured=GI50 result="0.354 µM"
compound=FC(F)(F)c1cccc(Nc2nc(-c3ccccc3)nc3ncccc23)c1 attribute_measured=GI50 result="4.07 µM"
compound=Nc1nc(-n2c(-c3ccccc3)nc3c(Br)cc(Br)cc3c2=O)nnc1-c1cccc(Cl)c1Cl attribute_measured=GI50 result="8.88 µM"
compound="C=C(C)C(OC)C(O)CC1(C)CC(O)CC(C)(C2CCC3OC(C4(C)CCC(Br)C(C)(C)O4)CCC3(C)O2)O1 (stereo not drawn)" attribute_measured=GI50 result="21.7 µM"

// batch mode: one GI50 value per listed entry
1. NC(N)=NS(=O)(=O)c1ccc(Nc2c3ccccc3nc3c(C(=O)NCCO)cccc23)cc1
2. CCOC1Oc2ccccc2C(=O)/C1=C/Nc1ccc(C(C)=O)cc1 (stereo not drawn)
3. Cc1ccc(NC(=O)Nc2ccc(-c3cccnc3)cc2N2CCC(CO)CC2)cc1
4. COc1cc2c(cc1OCCCCN1CCN(CC(=O)Nc3ccc(Cl)cc3C(=O)c3ccccc3Cl)CC1)N=CC1CCCN1C2=O (stereo not drawn)
5. Fc1[nH]nc2ccc([C@@H]3Nc4ccc5[nH]ncc5c4[C@H]4C5CCC(C5)[C@@H]34)cc12 (stereo partly drawn)
6. Cc1cc(-c2nc(C(=O)Nc3cc4oc(N5CCOCC5)nc4nc3N3CC[C@@H](O)C3)co2)ccn1

Output:
["33.6 µM", "55.2 µM", "2.85 µM", "0.175 µM", "0.801 µM", "37.2 µM"]

Give one value of GI50 per listed compound.
1. O=C(CCN1CCCCC1)C(=Cc1ccccc1)C(=O)CCN1CCCCC1
2. C[C@@H]1C[C@H]2C(=O)O[C@@H](C)[C@H](NC(=O)[C@H](Cc3cc(F)cc(F)c3)NC(=O)Nc3ccc(C4CC4)cc3F)C(=O)N3CCC[C@H]3C(=O)N3CCCC[C@H]3C(=O)N[C@@H](C)C(=O)N2C1 ({X10-CO}-[Phe(3,5-F2)][aThr]P[Pip]A[Pro(4R-Me)]; ester 2-C)
3. O=C(Nc1ccc(F)cc1)Nc1ccc(Cl)c([N+](=O)[O-])c1

Output:
1: 2.62 µM; 2: 0.0351 µM; 3: 2.48 µM

---

- System: KM12 colon
- Procedure Text: NCI tumour cell line growth inhibition, 48 h
Where a SMILES comes first, the peptide text is derived from it. [ ]: non-standard residue; d: D form. The star is where a group is joined. NMeAc5c = CNC1(C(=O)O)CCCC1; Boc = CC(C)(C)OC(=O)*; OBn = c1ccc(CO*)cc1
Attribute Measured: TGI

Would you please look over these solved cases?
compound="CN1CCCCC1CCN1c2ccccc2Sc2ccc(Cl)cc21 (configuration not stated)" attribute_measured=TGI result="7.38 µM"
compound="C[C@]12CCC(O)CC1=CC[C@@H]1[C@@H]2CC[C@]2(C)C(=O)[C@H](n3ccnc3)C[C@@H]12 (some centres not stated)" attribute_measured=TGI result="> 100 µM"
compound=COc1ccc(-c2c(C#N)c(-c3ccc(C)cc3)n(NS(=O)(=O)c3ccc(C)cc3)c(=O)c2C#N)cc1 attribute_measured=TGI result="> 100 µM"
compound=COCO[C@@H]1C[C@H]2C(=O)Nc3ccccc3C(=O)N2C1 attribute_measured=TGI result="> 100 µM"
compound=NC(=O)NO.O.O.O.O.O.O.O.O.O.O.O.[Ge].[Ge].[Ge].[Ge].[Ge].[O]=[Ge].[O]=[Ge].[O]=[Ge].[O]=[Ge].[O]=[Ge][OH] attribute_measured=TGI result="> 100 µM"
compound=Cc1cnc(NCCCN(C)C)c2c1[nH]c1ccc3cc(O)ccc3c12 attribute_measured=TGI result="10 µM"
compound="CN(C(=O)C(Cc1ccccc1)NC(=O)OC(C)(C)C)C1(C(=O)NC(Cc2ccccc2)C(=O)OCc2ccccc2)CCCC1 (stereo not drawn) (Boc-Phe-[NMeAc5c]-Phe-OBn; configuration not given here)" attribute_measured=TGI result="> 100 µM"
compound=CC(C)=CCC\C(C)=C/C=C/C(C)=C\C=C\C(C)=C/C=C/C=C(C)\C=C\C=C(C)/C=C/C=C(/C)CCC=C(C)C attribute_measured=TGI result="> 100 µM"

Hi, could you look up TGI for each item in my list?
1. c1ccc(-c2nc(-c3ccccc3SSc3ccccc3-c3nc(-c4ccccc4)nn3-c3ccccc3)n(-c3ccccc3)n2)cc1
2. N#CC1(C#N)N[C@@H](c2ccsc2)[C@H]2C(=O)N(c3ccccc3)C(=O)[C@H]21
3. COc1cc2c(c(OC)c1OC)-c1ccc(NNC(N)=S)c(=O)cc1[C@@H](NC(C)=O)CC2
4. Nc1nc(SCCc2ccccc2)c2[nH]cnc2n1
5. COC1/C=C/OC2(C)Oc3c(C)c(O)c4c(O)c(c(/C=N/Nc5ccc([N+](=O)[O-])cc5[N+](=O)[O-])c(O)c4c3C2=O)NC(=O)C(C)=C/C=C/C(C)C(O)C(C)C(O)C(C)C(OC(C)=O)C1C (configuration not stated)
6. CC(=O)OC1CC(OC2C(O)CC(OC3C(O)CC(OC4CCC5(C)C(CCC6C5CC(O)C5(C)C(C7=CC(=O)OC7)CCC65O)C4)OC3C)OC2C)OC(C)C1OC1OC(CO)C(O)C(O)C1O (configuration not stated)

Output:
1. > 100 µM
2. > 100 µM
3. 1.92 µM
4. > 100 µM
5. 6.68 µM
6. 0.519 µM

---

- Tested on: SK-MEL-2 melanoma
- Procedure Text: NCI tumour cell line growth inhibition, 48 h
Where a SMILES comes first, the peptide text is derived from it. [ ]: non-standard residue; d: D form. The star is where a group is joined. NMeAc5c = CNC1(C(=O)O)CCCC1; Boc = CC(C)(C)OC(=O)*; OBn = c1ccc(CO*)cc1
Please respond with reported TGI for every item in the list.

Reference set, count: 5
molecule="COc1ccc(C2CC(c3c(O)ccc4ccccc34)=NN2C(C)=O)cc1OC (stereo not drawn)" system="SK-MEL-2 melanoma" result="52.1 µM"
molecule="CN(C(=O)C(Cc1ccccc1)NC(=O)OC(C)(C)C)C1(C(=O)NC(Cc2ccccc2)C(=O)OCc2ccccc2)CCCC1 (stereo not drawn) (Boc-Phe-[NMeAc5c]-Phe-OBn; configuration not given here)" system="SK-MEL-2 melanoma" result="> 100 µM"
molecule=O=c1ccc(-c2ccccc2)n[nH]1 system="SK-MEL-2 melanoma" result="> 100 µM"
molecule="CCOC(=O)CCC1(C(=O)OCC)CCCCC1=O (stereo not drawn)" system="SK-MEL-2 melanoma" result="> 100 µM"
molecule="COC(=O)C([C@H](NC1(c2ccccc2)c2ccccc2-c2ccccc21)C(=O)OC)N(NC(=O)OCc1ccccc1)C(=O)OCc1ccccc1 (mixture of isomers)" system="SK-MEL-2 melanoma" result="> 100 µM"

Provide the reported TGI of each entry below, same order.
1. CN(C)C(=O)O/N=C1/C(c2c(O)[nH]c3ccccc23)=Nc2ccccc21
2. CN(C)c1ccc(/C=C\C2=[N+](C)c3ccccc3C2(C)C)cc1
3. COc1cccc(C2c3cc4c(cc3OC(C)(N3CCCC3)C2C)OCO4)c1O (stereo not drawn)

Output:
["33.4 µM", "43.2 µM", "> 23.5 µM"]
